B1: ADD1 (parent)
chain: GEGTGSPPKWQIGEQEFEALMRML

Variants of: B1
method.description: protein stability index of a GFP-peptide fusion (GPS, HEK-293T) (PSI 1-6); higher = more stable;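 note: lentivirally expressed fusions sorted by FACS into six bins by GFP to DsRed ratio, PSI derived from sequencing read proportions per bin multiplied by bin number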
condition.context: c terminus: a fixed tail appended
measured.attribute: protein stability index

Asked: Any idea what protein stability index was measured for "G1H" ?
Given back: 3.1

Asked: What value of protein stability index has been recorded for this entry: "L24M"
Given back: 3.89

Asked: I would be grateful if you could share the reported protein stability index for "K9F" .
Given back: 2.8

Asked: Name the reported protein stability index value associated with the variant "Q11I"
Given back: 2.97

Asked: # input variant: "L20N" ; wanted: its protein stability index
Given back: 4.89

Asked: Please report the recorded protein stability index for "W10H" .
Given back: 3.99

Asked: Consider the variant shown here: "E14R" What is its recorded protein stability index?
Given back: 2.6

Asked: Which protein stability index is listed for "E16F" ?
Given back: 1.59

Asked: Need protein stability index of "Q15C" , thanks.
Given back: 2.9

Asked: Record request: protein stability index value, item "E18C"
Given back: 2.82

Asked: protein stability index lookup needed for "W10E" , thanks.
Given back: 4.28

Asked: Reported protein stability index for "P7L" : what is it?
Given back: 2.33

Asked: Item "F17T" has what recorded protein stability index?
Given back: 3.75

Asked: Which protein stability index is reported for this variant? "R22L"
Given back: 2.09

Asked: So what does the record say about protein stability index for "G1V" ?
Given back: 2.49

Asked: May I ask what protein stability index has been recorded for "M21C" ?
Given back: 3.18

Asked: Requested read-out: protein stability index. Entry: "F17D"
Given back: 4.82

Asked: State the recorded protein stability index for this entry: "K9Q"
Given back: 3.25

Asked: Look up protein stability index for this variant: "M23P"
Given back: 4.76

Asked: Consider the variant "G3H" and give its measured protein stability index.
Given back: 2.94

Asked: Reported protein stability index for "P8S" : what is it?
Given back: 2.82

Asked: Can you share its protein stability index? I mean this variant: "Q15V"
Given back: 2.39

Asked: Can you share its protein stability index? I mean this variant: "T4P"
Given back: 3.06

Asked: // returns reported protein stability index for input "A19Y"
Given back: 3.09

Asked: Request the reported protein stability index associated with "G1Y"
Given back: 3.13

Asked: I would be grateful if you could share the reported protein stability index for "M21R" .
Given back: 3.18

Asked: Any idea what its protein stability index is? The variant is "F17R"
Given back: 3.83

Asked: Which protein stability index value is on record for "G5E" ?
Given back: 3.21

Asked: Give the measured protein stability index of "E2Q" .
Given back: 3.53

Asked: What value of protein stability index has been recorded for this entry: "F17Q"
Given back: 4.76

Asked: Would you kindly share the measured protein stability index for "L24C" ?
Given back: 3.52

Asked: GET /values?readout=protein stability index&item= "M21T"
Given back: 3.13

Asked: Entry "F17S" has what protein stability index?
Given back: 4.28

Asked: Requested field: protein stability index. Item: "G3N"
Given back: 3.51

Asked: Need protein stability index of "A19M" , thanks.
Given back: 2.7
